Where do the numbers come from? From PubChem BioAssay.

# Protocol Details: basal RPMI8226 viability, no added stimulus, profiling panel, cell-based, calcein-AM fluorescence, 48 h, PK04 Diversity Set (AID 1166);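 note: cells grown under basal conditions without added stimulus; test concentration not given here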
# Test Context: RPMI8226 myeloma viability, higher = more signal
Assay Readout: z-score
Numbers only.

Compound: COc1cc(Br)cc(C(O)C2C=CC3C(=O)N(C)C(=O)C3N2N2CCCCC2)c1OC (centres undefined)
Assay Readout: z-score
Numeric Readout: -0.18
--
Compound: CN1C(=O)C2C=CC(C(O)c3ccco3)N(Nc3ccccc3)C2C1=O (centres undefined)
Assay Readout: z-score
Numeric Readout: -0.137
--
Compound: C=CCN1C(=O)[C@@]2(Cc3ccccc31)N=C(c1ccc(OCCCO)cc1)O[C@H]2c1ccccc1
Assay Readout: z-score
Numeric Readout: -2.16

[Q] Query: z-score; subject: `Oc1ccc2cc[n+](Cc3sc4ccccc4c3Cl)cc2c1`
[A] -1.86
